target_desc: T1, MBP-tagged CORB (human, UniProt Q5S007 1672-1840)
T1 construct: range 1672-1840; Purified from E. coli BL21(DE3); also called C-terminal part of the COR domain; His6-MBP-tagged COR-B; not shown: N-terminal His6-MBP tag (pDEST-566)
protocol_description: fluorescence polarization, 10 nM FAM-labeled peptide, MBP-CORB titrated
Experimental: Fluorescence Polarization (FP) Assays. […] Each FAM-labeled peptide was plated at a final in-well concentration of 10 nM in 384-well microtiter plates. 1:2 dilutions of the protein were then performed from a concentration range of 5 μM to 1 nM. […] The peptide:protein mixture was incubated at room temperature for 2 hours with readings taken every 30 minutes. The final readings were obtained at 2 hours. […]
Positions of bridges follow the written chain, without caps; N, C: chain ends. Non-standard residues stand in square brackets, D forms with d. Primed or numbered codes have the meaning given here. PEG3″ = N-terminal PEG3 linker; FAM″ = 5,6-carboxyfluorescein; S5 = C=CCCC[C@](C)(N)C(=O)O
endpoint: pKd
Please treat pKd as minus the base-10 logarithm of the molar concentration.

// recorded pKd for {FAM″-PEG3″}-KGEGE[S5]LLK[S5]WK-NH2 (staple 6-10, 16) [FAM-labeled LCIP1] : 6.00
